system: HEK-293T; test: Protonophoric activity in human HEK293T/17 cells assessed as mitochondrial membrane depolarization at 50 uM for 30 mins by TMRE dye based flow cytometry; format: functional, cell-based
Active and inactive are the calls of the source. The calls are words filed in the database; no cut-off is given here.
MEASURED QUANTITY: Activity

[[record]]
compound = "O=C(Nc1ccc(Oc2ccc(Cl)cc2)c(Cl)c1)c1cc(I)cc(I)c1O [RAFOXANIDE]"
study_target = "HEK-293T"
value_observed = "Active"

[[record]]
compound = "O=C(Nc1ccc(Oc2ccc(Cl)cc2)cc1)c1cc(I)cc(I)c1O"
study_target = "HEK-293T"
value_observed = "Active"

[[record]]
compound = "COc1c(I)cc(I)cc1C(=O)N(C)c1ccc(Oc2ccccc2)cc1"
study_target = "HEK-293T"
value_observed = "inactive"

[[record]]
compound = "O=C(Nc1ccc2ccccc2c1)c1cc(I)cc(I)c1O"
study_target = "HEK-293T"
value_observed = "Active"

[[record]]
compound = "COc1c(I)cc(I)cc1C(=O)Nc1ccc(Oc2ccccc2)cc1"
study_target = "HEK-293T"
value_observed = "inactive"

